Molecular target: human TRPV1 (Homo sapiens, UniProt Q8NER1, M315I/T336M)
Construct: expressed in transfected cells; pcDNA3 control cells
Sequence (Q8NER1 whole entry M315I/T336M): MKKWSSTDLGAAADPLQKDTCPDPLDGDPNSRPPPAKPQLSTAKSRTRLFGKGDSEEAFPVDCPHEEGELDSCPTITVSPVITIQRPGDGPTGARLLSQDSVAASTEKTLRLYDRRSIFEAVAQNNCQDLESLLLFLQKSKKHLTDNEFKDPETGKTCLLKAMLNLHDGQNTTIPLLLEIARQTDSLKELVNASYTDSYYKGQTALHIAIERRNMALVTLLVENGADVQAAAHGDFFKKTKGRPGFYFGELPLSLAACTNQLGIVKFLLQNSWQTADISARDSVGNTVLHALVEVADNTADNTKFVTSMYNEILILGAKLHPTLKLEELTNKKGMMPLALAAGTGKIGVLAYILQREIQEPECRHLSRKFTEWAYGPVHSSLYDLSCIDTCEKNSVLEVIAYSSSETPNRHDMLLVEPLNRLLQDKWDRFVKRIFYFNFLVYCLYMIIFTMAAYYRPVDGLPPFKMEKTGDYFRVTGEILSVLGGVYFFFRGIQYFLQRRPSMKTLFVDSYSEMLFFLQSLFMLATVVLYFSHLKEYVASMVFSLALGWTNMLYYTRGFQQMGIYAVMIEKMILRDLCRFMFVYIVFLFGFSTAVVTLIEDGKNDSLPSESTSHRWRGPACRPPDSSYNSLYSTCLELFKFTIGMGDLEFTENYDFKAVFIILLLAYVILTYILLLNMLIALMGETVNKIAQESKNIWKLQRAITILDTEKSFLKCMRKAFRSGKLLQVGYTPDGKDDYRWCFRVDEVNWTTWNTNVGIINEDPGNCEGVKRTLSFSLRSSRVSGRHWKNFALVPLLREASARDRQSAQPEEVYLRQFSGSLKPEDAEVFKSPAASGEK
Assay: Intracellular calcium (Fluo-4, FLIPR) activation of TRPV1 cells by GRAS compounds
Format: cell-based
Settings: Table 1(g); 1 mM; relative to capsaicin 350 nM
V1 activation, % of agonist value of 60% or higher: 1.0. Under 60%: 0.0.

**Q:** Tell me whether V1 activation, % of agonist value is at least 60% here: CCCCCCCCCC1CCCC(=O)O1 (centres unmarked)
**A:** 0.0

**Q:** Tell me whether V1 activation, % of agonist value is at least 60% here: CCCCCc1cccc(=O)o1
**A:** 1.0

**Q:** Tell me whether V1 activation, % of agonist value is at least 60% here: CC(=O)CC(=O)OCC(C)C [Isobutyle acetoacetate]
**A:** 0.0

**Q:** Tell me whether V1 activation, % of agonist value is at least 60% here: CC1(C)[C@@H](O[C@H]2O[C@H](C(=O)O)[C@@H](O)[C@H](O)[C@H]2O[C@@H]2O[C@H](C(=O)O)[C@@H](O)[C@H](O)[C@H]2O)CC[C@]2(C)[C@H]3C(=O)C=C4[C@@H]5C[C@@](C)(C(=O)O)CC[C@]5(C)CC[C@@]4(C)[C@]3(C)CC[C@@H]12
**A:** 1.0

**Q:** Tell me whether V1 activation, % of agonist value is at least 60% here: CC(=O)S
**A:** 1.0

---

System: TRPA1V1
Experiment: Intracellular calcium (Fluo-4, FLIPR) activation of TRPA1V1 cells (co-expressing TRPA1 and TRPV1) by GRAS compounds;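 further: HEK293 cells co-expressing TRPA1 and TRPV1, fluorescence read at 488/514 nm after baseline subtraction, recorded every 2 s over 10 min, ionomycin 10 µM and buffer as controls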
Type: cell-based, human
Conditions: Table 1(a); 1 mM; relative to AITC 30 μM; average of three plates
A1V1 activation, % of agonist value of 70% or higher: criterion met. Under 70%: criterion not met.

**Q:** Tell me whether A1V1 activation, % of agonist value is at least 70% here: O=Cc1cc2ccccc2o1
**A:** criterion met

**Q:** Tell me whether A1V1 activation, % of agonist value is at least 70% here: Cc1ccc(C)c(O)c1C
**A:** criterion met

**Q:** Tell me whether A1V1 activation, % of agonist value is at least 70% here: C=C(C)[C@@H]1CC=C(CO)CC1
**A:** criterion met

---

Target: human TRPV1 (Homo sapiens, UniProt Q8NER1, M315I/T336M)
Construct: expressed in transfected cells; pcDNA3 control cells
Test: Intracellular calcium (Fluo-4, FLIPR) activation of TRPV1 cells by GRAS compounds;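 further: TRPV1-expressing cells, FLIPR fluorescence at 488/514 nm with baseline subtracted, sampled every 2 s for 10 min after adding compound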
Type: cell-based
Conditions: Table 1(a); 1 mM; relative to capsaicin 350 nM; average of three plates; read-out: V1 activation, % of agonist value
parameter: activation at 1000 µM (%)
# output: bare number, implied unit %

Entry CC(C)C(C=O)c1ccccc1 (centres unmarked) , activation at 1000 µM reported as 75.8

Entry CCCc1ccccc1O , activation at 1000 µM reported as 96.9

Entry CCCCOC(=O)c1ccc(O)cc1 [Butylparaben, Butyl 4-hydroxybenzoate] , activation at 1000 µM reported as 79.1

Entry CCCCCCCCCCCCCCCC(=O)OC/C=C(C)/C=C/C=C(C)/C=C/C1=C(C)CCCC1(C)C [Retinol palmitate] , activation at 1000 µM reported as 32.8

Entry CCCCC/C=C/CO [Trans-2-Octen-1-ol] , activation at 1000 µM reported as 26
